tested on: NCI-H23 lung; assay: NCI-60 one-dose screen, 48 h (100 = growth as untreated, 0 = no growth, -100 = all killed); conditions: 10 µM unless noted
About 83,000 compounds went through this panel and 20% of them were active in at least one assay; those are over-represented in the sample as a whole. Active and inactive are the calls of the source. The calls were made as follows: active = growth percent below 10; inactive = the rest.
result_type: growth

smiles_str: c1ccc(CN=C(NCc2ccccc2)NCc2ccccc2)cc1
target_or_test_system: NCI-H23 lung
recorded_result: 42.4% (inactive)

smiles_str: CCOC(=O)c1sc(NC(=O)COc2ccc(/C=C3\CCc4cc(OC)ccc4C3=O)cc2)nc1C
target_or_test_system: NCI-H23 lung
recorded_result: 96.6% (inactive)

smiles_str: FC(F)(F)c1ccc(-c2cnc(-c3nn[nH]n3)nc2NC2CCCCCC2)cc1
target_or_test_system: NCI-H23 lung
recorded_result: 66% [50 µM] (inactive)

smiles_str: N#Cc1c(-c2ccc(F)cc2)n2c(nc1=O)SC(=O)C2=O
target_or_test_system: NCI-H23 lung
recorded_result: 98.6% (inactive)

smiles_str: NC(=NCCCCCCN=C(N)/N=C(\N)Nc1ccc(Cl)cc1)/N=C(\N)Nc1ccc(Cl)cc1
target_or_test_system: NCI-H23 lung
recorded_result: 8.42% (active)

smiles_str: Clc1ccc2nc(CI)c(CI)nc2c1
target_or_test_system: NCI-H23 lung
recorded_result: 85.8% (inactive)

----------
tested on: U251 CNS; assay: NCI-60 one-dose screen, 48 h; conditions: 10 µM unless noted
This is part of a sample that, as a whole, favours compounds with a hit. Of some 83,000 tested, about 20% had one in any assay. Calls of active or inactive are those of the source. The calls were made as follows: active = growth percent below 10; inactive = the rest.
Labels: 1 for active, -1 for inactive

compound: Cc1n(Cc2ccc3ccccc3c2)cc[n+]1Cc1ccc2ccccc2c1
label_value: 1
//
compound: O=C(CNc1ccc2c(c1)C(=O)c1ccccc1C2=O)Nc1ccc2c(c1)C(=O)c1ccccc1C2=O
label_value: 1
//
compound: NC(=O)NS(=O)(=O)c1ccc(N2N=C(C(F)(F)F)CC2c2cc(C(F)(F)F)cc(C(F)(F)F)c2)cc1 (configuration not stated)
label_value: -1
//
compound: CN(C)CCCN=c1cc2c(=O)n(CCCN(C)C)c(=O)c3c(NCCCN(C)C)cc4c(O)n(CCCN(C)C)c(=O)c1c4c3-2
label_value: 1
//
compound: CCSc1nc(-c2ccc(F)cc2)c(C#N)c(=O)[nH]1
label_value: -1
//
compound: COP(=O)(OC)C(c1ccc(O)cc1)(c1ccc(O)cc1)c1ccc(O)cc1
label_value: -1
//
compound: CCCc1n(Cc2ccc3ccccc3c2)cc[n+]1Cc1ccc2ccccc2c1
label_value: 1
//
compound: c1ccc(N2c3nc4ccccc4cc3Sc3cc4ccccc4nc32)nc1
label_value: -1
//
compound: CO[C@H]1/C=C/O[C@@]2(C)Oc3c(C)c(O)c4c(O)c(c(/C=N/N5C(C)CN(Cc6ccc(C#N)cc6)CC5C)c(O)c4c3C2=O)NC(=O)/C(C)=C\C=C\[C@H](C)[C@H](O)[C@@H](C)[C@@H](O)[C@@H](C)[C@H](OC(C)=O)[C@@H]1C (some centres not stated)
label_value: -1
//
compound: C[C@H]1O[C@@H](O[C@H]2[C@@H](O)C[C@H](O[C@H]3[C@@H](O)C[C@H](O[C@H]4CC[C@]5(C)C6C[C@@H](O)[C@]7(C)[C@@H](C8=CC(=O)OC8)CC[C@]7(O)C6CC[C@@H]5C4)O[C@@H]3C)O[C@@H]2C)C[C@H](O)[C@@H]1O (some centres not stated)
label_value: 1
//
compound: CCn1cnc(C[C@H](NC(=O)[C@H](CCCCNC(=O)Nc2cc(C(F)(F)F)cc(C(F)(F)F)c2)NC(=O)Nc2cc(C(F)(F)F)cc(C(F)(F)F)c2)C(=O)OC)c1
label_value: 1
//
compound: COc1ccc2c(c1)sc1nc(-c3ccc(N(C)C)cc3)cn12
label_value: -1
//
compound: C/C(=C\CCc1ccsc1)CC/C=C(\C)CCCN1CCSCC1
label_value: -1
//
compound: COc1ccc2c(c1)sc1nc(-c3ccc(Br)cc3)cn12
label_value: -1
//
compound: COc1ccc(CNC(=O)c2c(C)n([O-])c3ccc(OC)cc3[n+]2=O)cc1
label_value: -1
//
compound: Cc1[nH]cnc1/C=C1\SC(N2CCCCC2)=NC1=O
label_value: -1
//
compound: CCCCCCCC[Si](OCC)(OCC)OCC
label_value: -1

----------
test system: IGROV1 ovarian; experiment: NCI-60 one-dose screen, 48 h; settings: 10 µM unless noted
Compounds without any hit were thinned out: in the full panel of roughly 83,000, 20% have a hit. The source made the active and inactive calls. How the source made its calls: active means growth percent below 10; inactive means the rest.
Labels: active, inactive

molecule: COc1ccc(C(=O)/C=C/c2ccc(C)cc2)cc1OC
label_value: active
--
molecule: Nc1nc(SCc2cccnc2)c2ncn(C3OC(CO)C(O)C3O)c2n1 (centres undefined)
label_value: inactive
--
molecule: NS(=O)(=O)c1ccc(-n2ncc3c(NC4CCCCC4)ncnc32)cc1
label_value: inactive
--
molecule: C[C@]12CC[C@H](O)CC1=CC[C@@H]1[C@@H]2CC[C@]2(C)C(c3cccnc3)=CC[C@@H]12
label_value: inactive
--
molecule: CC(=O)OCC(=O)[C@@]1(O)CC[C@H]2[C@@H]3CCC4=CC(=O)CC[C@]4(C)[C@@]3(F)[C@@H](O)C[C@@]21C
label_value: inactive
--
molecule: CCSc1nc(-c2ccc(F)cc2)c(C#N)c(=O)[nH]1
label_value: inactive
--
molecule: C[C@H](C(=O)N[C@@H](Cc1ccc(-c2ccccc2)cc1)C(=O)NC1CC(C)(C)N(C)C(C)(C)C1)c1ccc(-c2ccccc2)c(F)c1
label_value: active
--
molecule: CCN(Cc1cccc(S(=O)(=O)[O-])c1)c1ccc(C(=C2C=CC(=[N+](CC)Cc3cccc(S(=O)(=O)O)c3)C=C2)c2ccccc2S(=O)(=O)O)cc1
label_value: inactive
--
molecule: Nc1ccc2c(c1)Cc1cc(Cl)c(Cl)cc1-2
label_value: inactive
--
molecule: COc1ccc2c(c1)[n+](=O)c(/C=C/C(=O)c1cc(OC)c(OC)c(OC)c1)c(C)n2[O-]
label_value: inactive
--
molecule: Cc1ccc(NC(=O)c2sc3nc4c(cc3c2N)C(=O)CCC4)cc1
label_value: inactive
--
molecule: OCCN1CCN(CCCN2c3ccccc3Sc3ccc(C(F)(F)F)cc32)CC1
label_value: inactive
--
molecule: CCCCCCC(CC#N)(CCC)CCCC (centres undefined)
label_value: inactive
--
molecule: COc1cccc2c1C(=O)c1c(O)c3c(c(O)c1C2=O)C[C@@](O)(C(C)=O)C[C@@H]3O[C@H]1C[C@H](N)[C@H](O)[C@H](C)O1
label_value: active
--
molecule: Nc1ccccc1C#Cc1ccccc1C#Cc1ccc(OCCCCCCOc2ccc(C#Cc3ccccc3C#Cc3ccccc3N)cc2)cc1
label_value: active
--
molecule: CC(C)OP(=O)(OC(C)C)c1ncc(-c2ccc(C(F)(F)F)cc2)c(NC2CCCCCC2)n1
label_value: active
--
molecule: Cc1sc2nc(NCc3ccccc3)[nH]c(=O)c2c1C
label_value: inactive
--
molecule: CCOc1cc(CCNS(=O)(=O)c2ccc(C)cc2)c(C(C)=O)cc1OCC
label_value: inactive
--
molecule: COc1cc(OC)c2c(c1Cl)O[C@]1(C2=O)C(OCc2ccccc2)=CC(=O)C[C@H]1C
label_value: active

----------
Listing of recorded growth by entry.
system: HCT-15 colon; assay: NCI-60 one-dose screen, 48 h (100 = growth as untreated, 0 = no growth, -100 = all killed); details: 10 µM unless noted
The panel holds about 83,000 compounds, 20% with a hit somewhere; the sample as a whole holds those more often.

compound: CCN(CC)c1ccc(C(=C2C=CC(=[N+](CC)Cc3cccc(S(=O)(=O)O)c3)C=C2)c2ccc(N(CC)Cc3cccc(S(=O)(=O)O)c3)cc2)cc1
growth / %: 85.1
--
compound: O=C(COc1ccc(/C=C2\Oc3ccc4ccccc4c3C2=O)cc1)c1ccc(Cl)cc1
growth / %: 92
--
compound: O=C(/C=C/c1c(-c2ccccc2)[nH]c2ccccc12)S(=O)(=O)c1ccccc1
growth / %: 38.1
--
compound: Cc1ccc(N/N=C(/C(=O)c2ccc(Cl)cc2)c2nc(C)cc(=O)[nH]2)cc1
growth / %: 111
--
compound: Clc1ccc2c(c1)C(Br)c1cc(Cl)cc(Cl)c1-2 (centres undefined)
growth / %: 78.1
--
compound: CN(C)CCC(=O)Nc1ccc(-n2cc(-c3cccc(NC(=S)Nc4cccc(-c5cn(-c6ccc(NC(=O)CCN(C)C)cc6)nn5)c4)c3)nn2)cc1
growth / %: 92.5
--
compound: CC(=O)Nc1ccc(C(=O)COc2cccc(/C=C3\CCc4ccccc4C3=O)c2)cc1
growth / %: 89
--
compound: O=C1C=CC(=O)N1c1ccccn1
growth / %: 97.7
--
compound: CC(C)Sc1nc(Cl)c(C#N)c(-c2ccc(F)cc2)n1
growth / %: 87.4
